Values compiled from patent US7795456B2.

- System: green peach aphid (Myzus persicae)
- PROTOCOL DETAILS: Insecticidal test for green peach aphid, foliar spray on cabbage seedlings
- CONDITION NOTES: 0.78 ppm, rundown assay, 3 days
MEASURED PARAMETER: % Control at ppm, against green peach aphid: 0.78

COMPOUND: CC(c1ccc(Cl)nc1)[S@](C)(=O)=NC#N (stereo partly drawn)
READING: A (90-100)
//
COMPOUND: CS(=O)(CCc1ccc(Cl)nc1)=NC#N (stereo not drawn)
READING: F (Less than 50)
//
COMPOUND: C[C@H](c1ccc(Cl)nc1)[S@](C)(=O)=NC#N
READING: A (90-100)
//
COMPOUND: N#CN=[S@@]1(=O)CCCC1Cc1ccc(Cl)nc1 (stereo partly drawn)
READING: F (Less than 50)
